protocolDescription: chemical genetic growth profiling, strain panel (AID 1159580);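 further: tested at 20 µM; growth read once vehicle control cultures reached saturation at 30 °C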
studyConditions: S. cerevisiae deletion strains, growth OD, locus YDL101C, strain DUN1
Screen size: about 5,500 compounds; about 2,000 (36%) were called active. Roughly 18% stayed inconclusive and do not appear here. No stated cut-off is given here; in the data, active means normalized growth mostly below about 0.91 (no sharp cut-off); inconclusive means no clear call, values can overlap the other calls; inactive means mostly above about 0.92. Some of the results follow.
Outcome field: choose from Y for active, N for inactive

These recorded examples may help you get a feel for the data.
INSERT INTO assay_data (molecule, grouplabel) VALUES
  ('O=C(Nc1ccccc1)Nc1ccc(Cl)cc1[N+](=O)[O-]', 'N'),
  ('O=[N+]([O-])c1ccc(Oc2cccc3cccnc23)cc1', 'N'),
  ('CC12CCC3c4ccc(OCc5ccccc5)cc4CCC3C1C[C@@H](O)[C@@H]2O (some centres undefined)', 'Y'),
  ('Cc1ccc(NNC(=O)c2cccs2)cc1Cl', 'N'),
  ('COc1cc(Br)cc(C=Nc2ccc(Sc3ccccc3)nc2Sc2ccccc2)c1O', 'N');

// query Hi team, can someone confirm the assay call for CC(C)(C)NCC(O)c1cc(Cl)c(N)c(Cl)c1 (centres undefined) ?
// result N

// query And for C[C@]12CCC3c4ccc(OS(=O)(=O)O)cc4CCC3C1CC[C@H]2O (some centres undefined) ?
// result N

// query And for NC(=O)NCC(N)C(=O)O (centres undefined) ?
// result N

// query And for O=[N+]([O-])c1cc(Cl)cc([N+](=O)[O-])c1Nc1ccccc1 ?
// result N

// query And for CC(=O)OC1CN2CCC1CC2 (centres undefined) ?
// result N

---

protocolDescription: chemical genetic growth profiling, strain panel (AID 1159580);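 further: tested at 20 µM; growth read once vehicle control cultures reached saturation at 30 °C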
studyConditions: S. cerevisiae deletion strains, growth OD, locus YLR268W, strain sec22, stronger effect = lower value
About 2,000 (36%) of roughly 5,500 compounds were called active. Not shown: some 18% with an inconclusive outcome. Some of the results follow.
Checkbox rule: normalized growth lower than 1 = rule met; normalized growth not lower than 1 = rule not met.

INSERT INTO results (molecule, grouplabel) VALUES
  ('COc1ccc(-c2oc3c(CC=C(C)C)c(O[C@@H]4O[C@H](CO)[C@@H](O)[C@H](O)[C@H]4O)cc(O)c3c(=O)c2O[C@@H]2O[C@@H](C)[C@H](O)[C@@H](O)[C@H]2O)cc1', 'rule met'),
  ('O=c1c(O)c(-c2cc(O)c(O)c(O)c2)oc2cc(O)cc(O)c12', 'rule not met');

# ---- query molecule ----
// query Just wondering, is normalized growth of COc1ccc2c(c1)CCC1C2CC[C@@]2(C)C1CC[C@@H]2O (some centres undefined) below 1?
// result rule met

---

protocolDescription: chemical genetic growth profiling, strain panel (AID 1159580);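 further: tested at 20 µM; growth read once vehicle control cultures reached saturation at 30 °C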
studyConditions: S. cerevisiae deletion strains, growth OD, locus YDL005C, strain med2, stronger effect = lower value
About 2,000 (36%) of roughly 5,500 compounds were called active. About 18% were inconclusive and are not listed. This is one part of the list.
Checkbox rule: normalized growth lower than 1 = rule met; normalized growth not lower than 1 = rule not met.

INSERT INTO assay_data (compound, grouplabel) VALUES
  ('CN[C@@H]1[C@@H](O)C(OC2[C@@H](N)C[C@@H](N)[C@H](O[C@H]3O[C@H](C(C)O)[C@@H](O)[C@H](O)[C@H]3N)[C@H]2O)OC[C@]1(C)O (some centres undefined)', 'rule met');

# ---- query compound ----
// query Just wondering, is normalized growth of NC(=NCCC[C@H](N)C(=O)O)N[N+](=O)[O-] below 1?
// result rule not met

The values you see were collected from PubChem BioAssay AID1159580.
